Assay: CCTE_Shafer_MEA_acute_burst_percentage_std: CCTE's Neural Acute Assay for Standard Deviation of Burst Percentage, Shafer Lab (AID 2284018);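 also: fitted in the negative direction so actives lower burst percentage SD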
Activity calls are given as the source filed them. The calls were made as follows: active = hit-call score of the fitted dose curve at least 0.9, where 1 is the maximum; inactive = score below 0.9.
Outcomes: active, inactive

| Compound | Cat |
| --- | --- |
| ClC(Cl)(Cl)c1ccccc1 | inactive |
| CCOP(=S)(Oc1ccc([N+](=O)[O-])cc1)c1ccccc1 (stereo not given) | inactive |
| CCC(C)(C)c1ccc(O)cc1 | inactive |
| ClC1=C(Cl)C2(Cl)C3C(Cl)C(Cl)CC3C1(Cl)C2(Cl)Cl (stereo not given) | inactive |
| CCOc1ccc(C(C)(C)COCc2cccc(Oc3ccccc3)c2)cc1 | inactive |
| Nc1ccc2ccccc2c1 | inactive |
| CC(C)(C)c1ccccc1OP(=O)(Oc1ccccc1)Oc1ccccc1 | active |
| COCCOCCO | inactive |
| CCCCC(CC)COP(=O)(Oc1ccccc1)Oc1ccccc1 (stereo not given) | active |
| [N-]=[N+]=[N-] | inactive |
